target-entity: Prothrombin (Homo sapiens)
measurement-notes: Inhibition of human thrombin using spectrozyme TH as substrate pretreated for 10 mins followed by substrate addition measured in absence of exosite 2 competitor unfractionated heparin by spectrophotometric method
observation-type: IC50 (nM)
One number for each entry, in nM.

CCOC(=O)c1c(C)oc2cc(OCc3ccccc3)c(OCc3oc4cc(OCC5CCCCC5)c(OS(=O)(=O)O)cc4c3C(=O)OCC)cc12: 2000

Please turn your attention to the following entry.
Hey, Prothrombin (Homo sapiens) data for CCOC(=O)c1c(C)oc2cc(OCCc3ccccc3)c(OCc3oc4cc(OC)c(OS(=O)(=O)O)cc4c3C(=O)OCC)cc12 : IC50 came out at 1300

###

target-entity: Prothrombin (Homo sapiens)
measurement-notes: Partial allosteric inhibition of human thrombin using spectrozyme TH as substrate pretreated for 10 mins followed by substrate addition by spectrophotometric method
observation-type: pIC50
One number for each entry, as −log10 of the molar value.

Need pIC50 for each of these molecules.
1. CCOC(=O)c1c(C)oc2cc(OCc3ccccc3)c(OCc3oc4cc(OCC5CCCCC5)c(OS(=O)(=O)O)cc4c3C(=O)OCC)cc12
2. COc1cc2oc(C)c(C(=O)OCc3ccccc3)c2cc1OS(=O)(=O)O
3. CCOC(=O)c1c(C)oc2cc(OCc3ccccc3)c(OS(=O)(=O)O)cc12
4. CCOC(=O)c1c(C)oc2cc(OCc3ccccc3)c(OCc3oc4cc(OC)c(OS(=O)(=O)O)cc4c3C(=O)OCCOS(=O)(=O)O)cc12

[reply]
1: 5.44; 2: 3.77; 3: 3.87; 4: 4.85

###

target-entity: Prothrombin (Homo sapiens, UniProt P00734)
measurement-notes: Inhibition of human thrombin using spectrozyme TH as substrate pretreated for 10 mins followed by substrate addition measured in presence of 30 uM exosite 1 competitor hirudine peptide by spectrophotometric method
settings: in the assay text read “30 nM” for “30 uM”
observation-type: pIC50
One number for each entry, as −log10 of the molar value.

CCOC(=O)c1c(C)oc2cc(OCCc3ccccc3)c(OCc3oc4cc(OC)c(OS(=O)(=O)O)cc4c3C(=O)OCC)cc12: 5.82

// sample CCOC(=O)c1c(C)oc2cc(OCc3ccccc3)c(OCc3oc4cc(OCC5CCCCC5)c(OS(=O)(=O)O)cc4c3C(=O)OCC)cc12 , its pIC50 was 5.54

###

target-entity: Prothrombin (Homo sapiens, UniProt P00734)
measurement-notes: Inhibition of human thrombin using spectrozyme TH as substrate pretreated for 10 mins followed by substrate addition measured in presence of 20 uM exosite 2 competitor unfractionated heparin by spectrophotometric method
observation-type: IC50 (µM)
Give bare numbers, in µM.

Need IC50 for each of these compounds.
1. CCOC(=O)c1c(C)oc2cc(OCCc3ccccc3)c(OCc3oc4cc(OC)c(OS(=O)(=O)O)cc4c3C(=O)OCC)cc12
2. CCOC(=O)c1c(C)oc2cc(OCc3ccccc3)c(OCc3oc4cc(OCC5CCCCC5)c(OS(=O)(=O)O)cc4c3C(=O)OCC)cc12

[reply]
[3.4, 2.8]

###

target-entity: Prothrombin (Homo sapiens)
measurement-notes: Partial allosteric inhibition of human thrombin using spectrozyme TH as substrate pretreated for 10 mins followed by substrate addition by spectrophotometric method
observation-type: IC50 (µM)
Numbers only, in µM.

CCOC(=O)c1c(C)oc2cc(OCc3cccc(OCOC)c3)c(OS(=O)(=O)O)cc12: 229
CCCOC(=O)c1c(COc2cc3c(C(=O)OCc4ccccc4)c(C)oc3cc2OC)oc2cc(OC)c(OS(=O)(=O)O)cc12: 4.9
CCOC(=O)c1c(C)oc2cc(OCc3cccc(OCOC)c3)c(OCc3oc4cc(OC)c(OS(=O)(=O)O)cc4c3C(=O)OCC)cc12: 4
CCOC(=O)c1c(COc2cc3c(C(=O)OCCc4ccccc4)c(C)oc3cc2OC)oc2cc(OC)c(OS(=O)(=O)O)cc12: 3.2
CCOC(=O)c1c(C)oc2cc(OC)c(OCc3oc4cc(OCC5CCCCC5)c(OS(=O)(=O)O)cc4c3C(=O)OCC)cc12: 3.8
CCOC(=O)c1c(C)oc2cc(OCCc3ccccc3)c(OCc3oc4cc(OC)c(OS(=O)(=O)O)cc4c3C(=O)OCC)cc12: 1.8

// sample CCOC(=O)c1c(C)oc2cc(OCc3cccc(OC(C)C)c3)c(OCc3oc4cc(OC)c(OS(=O)(=O)O)cc4c3C(=O)OCC)cc12 , its IC50 was 2.6

###

target-entity: Prothrombin (Homo sapiens)
measurement-notes: Inhibition of human thrombin using spectrozyme TH as substrate pretreated for 10 mins followed by substrate addition measured in presence of 50 uM exosite 2 competitor unfractionated heparin by spectrophotometric method
observation-type: pIC50
Answers are plain numbers, as −log10 of the molar value.

Need pIC50 for each of these molecules.
1. CCOC(=O)c1c(C)oc2cc(OCc3ccccc3)c(OCc3oc4cc(OCC5CCCCC5)c(OS(=O)(=O)O)cc4c3C(=O)OCC)cc12
2. CCOC(=O)c1c(C)oc2cc(OCCc3ccccc3)c(OCc3oc4cc(OC)c(OS(=O)(=O)O)cc4c3C(=O)OCC)cc12

[reply]
5.59
4.84

###

target-entity: UniProtKB P00734
measurement-notes: Partial allosteric inhibition of human thrombin using spectrozyme TH as substrate pretreated for 10 mins followed by substrate addition by spectrophotometric method
Class key for Efficacy values: b0: < 60%; b1: ≥ 60% and < 80%; b2: ≥ 80%

Here are 5 molecules together with their reported answers.
CCOC(=O)c1c(C)oc2cc(OCc3ccccc3)c(OCc3oc4cc(OCC5CCCCC5)c(OS(=O)(=O)O)cc4c3C(=O)OCC)cc12: b2
CCOC(=O)c1c(C)oc2cc(OCc3ccc(OC(C)C)cc3)c(OCc3oc4cc(OC)c(OS(=O)(=O)O)cc4c3C(=O)OCC)cc12: b1
CCCOC(=O)c1c(COc2cc3c(C(=O)OCc4ccccc4)c(C)oc3cc2OC)oc2cc(OC)c(OS(=O)(=O)O)cc12: b1
CCOC(=O)c1c(C)oc2cc(OCc3cccc(OC(C)C)c3)c(OCc3oc4cc(OC)c(OS(=O)(=O)O)cc4c3C(=O)OCC)cc12: b0
CCOC(=O)c1c(C)oc2cc(OCC3CCCCC3)c(OCc3oc4cc(OCC5CCCCC5)c(OS(=O)(=O)O)cc4c3C(=O)OCC)cc12: b2

[ask] # bin label for COc1cc2oc(C)c(C(=O)OCc3ccccc3)c2cc1OS(=O)(=O)O
[reply] b2

[ask] # bin label for CCOC(=O)c1c(C)oc2cc(OCc3ccccc3)c(OS(=O)(=O)O)cc12
[reply] b1

[ask] # bin label for CCOC(=O)c1c(C)oc2cc(OCCc3ccccc3)c(OCc3oc4cc(OC)c(OS(=O)(=O)O)cc4c3C(=O)OCC)cc12
[reply] b0

[ask] # bin label for CCOC(=O)c1c(C)oc2cc(OCc3ccccc3)c(OCc3oc4cc(OC)c(OS(=O)(=O)O)cc4c3C(=O)OCC)cc12
[reply] b0

###

target-entity: Prothrombin (Homo sapiens, UniProt P00734)
measurement-notes: Partial allosteric inhibition of human thrombin at 300 uM using spectrozyme TH as substrate pretreated for 10 mins followed by substrate addition by spectrophotometric method relative to control
observation-type: inhibition

CCOC(=O)c1c(C)oc2cc(OCCc3ccccc3)c(OCc3oc4cc(OC)c(OS(=O)(=O)O)cc4c3C(=O)OCC)cc12: > 50%
CCOC(=O)c1c(C)oc2cc(OCC3CCCCC3)c(OCc3oc4cc(OC)c(OS(=O)(=O)O)cc4c3C(=O)OCC)cc12: > 50%
CCOC(=O)c1c(C)oc2cc(OCc3ccccc3)c(OCc3oc4cc(OC)c(OS(=O)(=O)O)cc4c3C(=O)OCCOS(=O)(=O)O)cc12: > 50%
CCOC(=O)c1c(C)oc2cc(OCc3ccc(OC(C)C)cc3)c(OCc3oc4cc(OC)c(OS(=O)(=O)O)cc4c3C(=O)OCC)cc12: > 50%
CCOC(=O)c1c(C)oc2cc(OCc3ccccc3)c(OCc3oc4cc(OC)c(OS(=O)(=O)O)cc4c3C(=O)OCC)cc12: > 50%
CCOC(=O)c1c(COc2cc3c(C(=O)OCc4ccc(OCOC)cc4)c(C)oc3cc2OC)oc2cc(OC)c(OS(=O)(=O)O)cc12: > 50%

Need inhibition for each of these compounds.
1. CCOC(=O)c1c(C)oc2cc(OCc3cccc(OCOC)c3)c(OCc3oc4cc(OC)c(OS(=O)(=O)O)cc4c3C(=O)OCC)cc12
2. CCOC(=O)c1c(COc2cc3c(C(=O)OCCc4ccccc4)c(C)oc3cc2OC)oc2cc(OC)c(OS(=O)(=O)O)cc12

[reply]
1: > 50%; 2: > 50%

###

target-entity: UniProt P00734
measurement-notes: Partial allosteric inhibition of human thrombin using spectrozyme TH as substrate pretreated for 10 mins followed by substrate addition by spectrophotometric method
observation-type: pIC50
One number for each entry, as −log10 of the molar value.

CCOC(=O)c1c(COc2cc3c(C(=O)OCc4ccc(OCOC)cc4)c(C)oc3cc2OC)oc2cc(OC)c(OS(=O)(=O)O)cc12: 5.59

Need pIC50 for each of these molecules.
1. CCOC(=O)c1c(C)oc2cc(OCc3ccccc3)c(OCc3oc4cc(OC)c(OS(=O)(=O)O)cc4c3C(=O)OCC)cc12
2. CCOC(=O)c1c(C)oc2cc(OC)c(OCc3cccc(S(=O)(=O)O)c3)cc12

[reply]
[5.70, 3.87]
